Data origin, for the record: PubChem BioAssay (NCI)

system: SK-MEL-2 melanoma; assay: NCI tumour cell line growth inhibition, 48 h
experimental_endpoint: TGI

Please review the entries below; each comes with its answer.
# molecule, TGI
records = [
    ("COC(=O)COc1ccc(/C=C2\\N=C(c3ccccc3)N(c3cc(C(F)(F)F)ccc3Cl)C2=O)cc1", "> 100 µM"),
    ("CCSCC(=O)N1CCc2c([nH]c3ccccc23)C1=O", "> 100 µM"),
    ("Cc1cccc(C)c1NC(=O)CCCC(=O)CC(=O)/C=C/c1ccccc1", "> 100 µM"),
]

Query COC(=O)NC/C=C\c1nc(CC/C=C\C(=O)OC2CC3CC(=O)O[C@H](/C=C/CC(C)C)C[C@H]4CCC(C)C(C[C@H](OC)CC(C2)O3)O4)co1 (stereo not given in full) yields TGI of > 100 µM
